Provenance of the data: patent US20230119539A1

Assign S/N, HEK293/GRLuc/MSR1 cells to each entry below.
tested on: T1, human macrophage scavenger receptor 1 (MSR1) (human, UniProt P21757 1-451)
T1 sequence (looked up): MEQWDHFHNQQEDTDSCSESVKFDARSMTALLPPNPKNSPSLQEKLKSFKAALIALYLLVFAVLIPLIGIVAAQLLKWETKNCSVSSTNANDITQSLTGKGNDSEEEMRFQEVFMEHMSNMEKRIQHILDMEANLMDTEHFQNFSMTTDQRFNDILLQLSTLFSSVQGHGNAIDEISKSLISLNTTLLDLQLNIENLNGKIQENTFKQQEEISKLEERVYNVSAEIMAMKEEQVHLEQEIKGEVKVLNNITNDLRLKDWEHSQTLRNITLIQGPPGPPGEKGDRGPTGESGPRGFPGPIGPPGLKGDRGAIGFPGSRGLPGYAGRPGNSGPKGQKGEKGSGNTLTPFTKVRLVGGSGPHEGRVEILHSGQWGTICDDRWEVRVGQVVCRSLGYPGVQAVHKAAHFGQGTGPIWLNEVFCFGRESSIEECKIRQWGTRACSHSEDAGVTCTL
measurement description: cell-based or functional assay
Answers are plain numbers.

H1H21234N-N297Q-L14-PII-1 (antibody, V domains shown, heavy-chain constant region (not part of this entry): N297Q (EU); linker-payload L14-PII-1 (DIBAC-GGFG-NHCH2-Bud) conjugated as in Example 5; four DAR ADC) VH: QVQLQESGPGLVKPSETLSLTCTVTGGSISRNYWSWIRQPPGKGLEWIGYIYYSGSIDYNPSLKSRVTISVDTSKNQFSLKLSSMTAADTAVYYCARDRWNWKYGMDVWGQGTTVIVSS VL: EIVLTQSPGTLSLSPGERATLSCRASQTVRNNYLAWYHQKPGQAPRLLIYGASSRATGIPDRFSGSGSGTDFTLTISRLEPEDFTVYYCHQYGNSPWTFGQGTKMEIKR	120
H1H21234N-N297Q-L6-PII-9 (antibody, V domains shown, heavy-chain constant region (not part of this entry): N297Q (EU); linker-payload L6-PII-9 (DIBAC-suc-PEG4-PII-9, payload budesonide) conjugated as in Example 5; four DAR ADC) VH: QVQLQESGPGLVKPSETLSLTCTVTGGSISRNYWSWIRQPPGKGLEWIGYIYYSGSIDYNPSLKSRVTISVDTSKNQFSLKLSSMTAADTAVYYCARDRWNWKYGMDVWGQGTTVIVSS VL: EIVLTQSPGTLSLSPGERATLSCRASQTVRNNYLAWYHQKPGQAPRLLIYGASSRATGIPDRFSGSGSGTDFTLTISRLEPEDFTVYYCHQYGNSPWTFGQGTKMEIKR	150
H1H21234N-N297Q-L8-PII-1 (antibody, V domains shown, heavy-chain constant region (not part of this entry): N297Q (EU); linker-payload L8-PII-1 (COT-PEG4-EvcPAB-G-NHCH2-Bud) conjugated as in Example 5; four DAR ADC) VH: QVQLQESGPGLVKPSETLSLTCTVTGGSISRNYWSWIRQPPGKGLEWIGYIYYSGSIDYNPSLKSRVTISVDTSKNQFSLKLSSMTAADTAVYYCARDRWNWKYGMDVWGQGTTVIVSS VL: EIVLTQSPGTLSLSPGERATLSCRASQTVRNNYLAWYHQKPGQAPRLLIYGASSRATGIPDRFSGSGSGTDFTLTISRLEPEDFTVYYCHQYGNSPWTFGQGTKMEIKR	280

Continue with the next binder.
// S/N, HEK293/GRLuc/MSR1 cells lookup, key: H1H21234N-N297Q-L1-PII-1 (antibody, V domains shown, heavy-chain constant region (not part of this entry): N297Q (EU); linker-payload L1-PII-1 (DIBAC-suc-PEG4-vcPAB-PII-1, payload budesonide) clicked onto azido-PEG3-amine on glutamines; DAR 4) VH: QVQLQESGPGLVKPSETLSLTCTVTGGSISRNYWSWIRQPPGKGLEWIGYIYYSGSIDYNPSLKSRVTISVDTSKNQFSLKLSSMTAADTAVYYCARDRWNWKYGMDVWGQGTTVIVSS VL: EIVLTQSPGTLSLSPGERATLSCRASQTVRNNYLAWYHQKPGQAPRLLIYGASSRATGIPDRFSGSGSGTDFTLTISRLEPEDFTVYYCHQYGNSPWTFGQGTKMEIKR
222
